For each record, write down the corresponding AUC.
# Method Description: AUC in Swiss Webster mouse at 0.3 mg/kg, po administered as cassette dosing
# Assay type: ADME, organism-based, Plasma
# Set-up: dose 0.3 mg/kg, route oral
# Settings: Swiss Webster, plasma

AUC in this record for O=C(Nc1ccc(C(F)(F)F)cc1)NC1CCN(S(=O)(=O)CC(F)(F)F)CC1 : 4.27 µM·h

AUC in this record for O=C(Nc1ccc(C(F)(F)F)cc1)NC1CCN(C(=O)CC(F)(F)F)CC1 : 8.85 µM·h

AUC in this record for CCC(C)C(=O)N1CCC(NC(=O)Nc2ccc(C(F)(C(F)(F)F)C(F)(F)F)cc2)CC1 (stereo not drawn) : 1.6 µM·h

AUC in this record for O=C(Nc1ccc(C(F)(F)F)cc1)NC1CCN(C(=O)C2CC2)CC1 : 24.6 µM·h

AUC in this record for CCC(C)C(=O)N1CCC(NC(=O)Nc2ccc(C(F)(F)F)cc2)CC1 (stereo not drawn) : 3.29 µM·h

AUC in this record for CS(=O)(=O)N1CCC(NC(=O)Nc2ccc(OC(F)(F)F)cc2)CC1 : 5.3 µM·h

AUC in this record for CCC(C)C(=O)N1CCC(NC(=O)Nc2ccc(OC(F)(F)F)cc2)CC1 (stereo not drawn) : 3.3 µM·h

AUC in this record for CCCCS(=O)(=O)N1CCC(NC(=O)Nc2ccc(C(F)(F)F)cc2)CC1 : 0.245 µM·h

AUC in this record for CC(=O)N1CCC(NC(=O)NC23CC4CC(CC(C4)C2)C3)CC1 [AR9281] : 0.183 µM·h

AUC in this record for CCC(C)C(=O)N1CCC(NC(=O)Nc2ccc(C(C)C)cc2)CC1 (stereo not drawn) : 0.2 µM·h

AUC in this record for O=C(Nc1ccc(C(F)(C(F)(F)F)C(F)(F)F)cc1)NC1CCN(C(=O)CC(F)(F)F)CC1 : 9.6 µM·h

AUC in this record for CCC(C)C(=O)N1CCC(NC(=O)NC2CCCCCC2)CC1 (stereo not drawn) : 0.075 µM·h

AUC in this record for CC(C)C(=O)N1CCC(NC(=O)Nc2ccc(C(F)(F)F)cc2)CC1 : 19.7 µM·h

AUC in this record for CS(=O)(=O)N1CCC(NC(=O)Nc2ccc(C(F)(F)F)cc2)CC1 : 4.67 µM·h

AUC in this record for CCCCS(=O)(=O)N1CCC(NC(=O)Nc2ccc(OC(F)(F)F)cc2)CC1 : 0.22 µM·h

AUC in this record for CC(C)C(=O)N1CCC(NC(=O)Nc2ccc(OC(F)(F)F)cc2)CC1 : 19.5 µM·h

AUC in this record for CC[C@H](C)C(=O)N1CCC(NC(=O)Nc2ccc(OC(F)(F)F)cc2)CC1 : 2.53 µM·h

AUC in this record for CC[C@H](C)C(=O)N1CCC(NC(=O)Nc2ccc(C(F)(F)F)cc2)CC1 : 4.94 µM·h

Entry source: ChEMBL document CHEMBL3351722
